List of selectivity ratio values.
procedureSummary: in vitro
measurementSetup: hamster, CHO cells

Example entries begin here.
# molecule, selectivity ratio
rows = [
    ("C[C@@H]1CC[C@H]2C(C)(CO)O[C@@H]3O[C@@]4(C)CC[C@@H]1[C@]32OO4 (stereo partly drawn)", 1),
    ("C[C@@H]1CC[C@H]2C(C)(COC(=O)[C@H]3CCCN3C(=O)C(F)(F)F)O[C@@H]3O[C@@]4(C)CC[C@@H]1[C@]32OO4 (stereo partly drawn)", 4),
    ("C[C@@H]1CC[C@H]2C(C)(COC(=O)c3ccc(-c4ccccc4)cc3)O[C@@H]3O[C@@]4(C)CC[C@@H]1[C@]32OO4 (stereo partly drawn)", 10),
    ("COc1ccc2nc3cc(Cl)ccc3c(NCCN)c2c1", 0.5),
    ("COc1ccc2nc3cc(Cl)ccc3c(N3CCNCC3)c2c1", 1),
    ("CNCCCNc1c2ccc(Cl)cc2nc2ccc(OC)cc12", 0.4),
]

selectivity ratio for COc1ccc2nc3cc(Cl)ccc3c(N3CCNC(C)C3)c2c1 (stereo not drawn) ?
1.6

Any idea what selectivity ratio was measured for C[C@@H]1CC[C@H]2C(C)(COC(=O)c3ccco3)O[C@@H]3O[C@@]4(C)CC[C@@H]1[C@]32OO4 (stereo partly drawn) ?
1

---

procedureSummary: in vitro
measurementSetup: hamster, CHO cells
metricName: selectivity ratio

# compound, selectivity ratio
measured = [
    ("CCCCCC(=O)OCC1(C)O[C@@H]2O[C@@]3(C)CC[C@H]4[C@H](C)CC[C@@H]1[C@@]24OO3 (stereo partly drawn)", 7),
    ("C[C@@H]1CC[C@H]2C(C)(COC(=O)c3ccc(F)cc3)O[C@@H]3O[C@@]4(C)CC[C@@H]1[C@]32OO4 (stereo partly drawn)", 13),
    ("CO[C@H]1O[C@@H]2O[C@@]3(C)CC[C@H]4[C@H](C)CC[C@@H]([C@H]1C)[C@@]24OO3", 4),
    ("Cc1csc(C(=O)OCC2(C)O[C@@H]3O[C@@]4(C)CC[C@H]5[C@H](C)CC[C@@H]2[C@@]35OO4)c1 (stereo partly drawn)", 24),
]

Return reported selectivity ratio; argument: C[C@H]1[C@@H](O)O[C@@H]2O[C@@]3(C)CC[C@H]4[C@H](C)CC[C@@H]1[C@@]24OO3
2

What value of selectivity ratio has been reported for the following compound? COc1ccc2nc3cc(Cl)ccc3c(NCCCN(C)CCO[C@H]3O[C@@H]4O[C@@]5(C)CC[C@H]6[C@H](C)CC[C@@H]([C@H]3C)[C@@]46OO5)c2c1
5

Query: selectivity ratio; subject: COc1ccc2nc3cc(Cl)ccc3c(N3CCN(CCO[C@H]4O[C@@H]5O[C@@]6(C)CC[C@H]7[C@H](C)CC[C@@H]([C@H]4C)[C@@]57OO6)CC3)c2c1
33

selectivity ratio lookup needed for COc1ccc2nc3cc(Cl)ccc3c(N3CCN(CCO[C@H]4O[C@@H]5O[C@@]6(C)CC[C@H]7[C@H](C)CC[C@@H]([C@H]4C)[C@@]57OO6)C(C)C3)c2c1 (stereo partly drawn) , thanks.
9

Return reported selectivity ratio; argument: CC(=O)OCC1(C)O[C@@H]2O[C@@]3(C)CC[C@H]4[C@H](C)CC[C@@H]1[C@@]24OO3 (stereo partly drawn)
2

Which selectivity ratio reading was recorded for the compound C[C@@H]1CC[C@H]2C(C)(COC(=O)CCc3ccccc3)O[C@@H]3O[C@@]4(C)CC[C@@H]1[C@]32OO4 (stereo partly drawn) ?
16

Return reported selectivity ratio; argument: COc1ccc2nc3cc(Cl)ccc3c(NCCNCCO[C@H]3O[C@@H]4O[C@@]5(C)CC[C@H]6[C@H](C)CC[C@@H]([C@H]3C)[C@@]46OO5)c2c1
6

Looking for the measured selectivity ratio of C[C@@H]1CC[C@H]2C(C)(COC(=O)c3ccc([N+](=O)[O-])cc3)O[C@@H]3O[C@@]4(C)CC[C@@H]1[C@]32OO4 (stereo partly drawn) , can you help?
18

Entry C[C@H]1[C@H](OC(=O)CCC(=O)O)O[C@@H]2O[C@@]3(C)CC[C@H]4[C@H](C)CC[C@@H]1[C@@]24OO3 [SODIUM ARESUNATE] has what selectivity ratio?
1.6

---

procedureSummary: Selectivity index, ratio of IC50 for CHO cells to IC50 for antileishmanial activity against Leishmania donovani 9515 by resazurin dye based assay
Format: toxicity
measurementSetup: hamster, read-out: Ratio IC50
metricName: selectivity ratio
Number only, no unit.

# molecule, observedValue
data = [
    ("COc1ccc2nc3cc(Cl)ccc3c(NCCCN(C)CCO[C@H]3O[C@@H]4O[C@@]5(C)CC[C@H]6[C@H](C)CC[C@@H]([C@H]3C)[C@@]46OO5)c2c1", 3),
    ("CCCCCC(=O)OCC1(C)O[C@@H]2O[C@@]3(C)CC[C@H]4[C@H](C)CC[C@@H]1[C@@]24OO3 (some centres not stated)", 4),
    ("COc1ccc2nc3cc(Cl)ccc3c(N3CCN(CCO[C@H]4O[C@@H]5O[C@@]6(C)CC[C@H]7[C@H](C)CC[C@@H]([C@H]4C)[C@@]57OO6)C(C)C3)c2c1 (some centres not stated)", 5),
    ("COc1ccc2nc3cc(Cl)ccc3c(N3CCNCC3)c2c1", 1),
]

Consider the molecule CO[C@H]1O[C@@H]2O[C@@]3(C)CC[C@H]4[C@H](C)CC[C@@H]([C@H]1C)[C@@]24OO3 and give its measured selectivity ratio.
2

I am curious: what selectivity ratio value has been reported for COc1ccc2nc3cc(Cl)ccc3c(NCCNCCO[C@H]3O[C@@H]4O[C@@]5(C)CC[C@H]6[C@H](C)CC[C@@H]([C@H]3C)[C@@]46OO5)c2c1 ?
4

Please give the measured selectivity ratio for this molecule: C[C@@H]1CC[C@H]2C(C)(COC(=O)c3ccc([N+](=O)[O-])cc3)O[C@@H]3O[C@@]4(C)CC[C@@H]1[C@]32OO4 (some centres not stated)
19

---

procedureSummary: Selectivity index, ratio of IC50 for CHO cells to IC50 for antileishmanial activity against Leishmania donovani 9515 by resazurin dye based assay
Assay type: toxicity
measurementSetup: hamster, read-out: Ratio IC50
Let's look at some molecules and their measured selectivity ratio.

# molecule, metricName, observedValue
measured = [
    ("C[C@@H]1CC[C@H]2C(C)(COC(=O)c3ccc(F)cc3)O[C@@H]3O[C@@]4(C)CC[C@@H]1[C@]32OO4 (some centres undefined)", "selectivity ratio", 10),
    ("C[C@H]1[C@H](OC(=O)CCC(=O)O)O[C@@H]2O[C@@]3(C)CC[C@H]4[C@H](C)CC[C@@H]1[C@@]24OO3 [SODIUM ARESUNATE]", "selectivity ratio", 1.6),
    ("COc1ccc2nc3cc(Cl)ccc3c(NCCN)c2c1", "selectivity ratio", 0.4),
    ("C[C@@H]1CC[C@H]2C(C)(COC(=O)c3ccc(-c4ccccc4)cc3)O[C@@H]3O[C@@]4(C)CC[C@@H]1[C@]32OO4 (some centres undefined)", "selectivity ratio", 23),
    ("CC(=O)OCC1(C)O[C@@H]2O[C@@]3(C)CC[C@H]4[C@H](C)CC[C@@H]1[C@@]24OO3 (some centres undefined)", "selectivity ratio", 1),
]

What measured selectivity ratio goes with C[C@@H]1CC[C@H]2C(C)(CO)O[C@@H]3O[C@@]4(C)CC[C@@H]1[C@]32OO4 (some centres undefined) ?
1

# lookup: selectivity ratio of C[C@@H]1CC[C@H]2C(C)(C=O)O[C@@H]3O[C@@]4(C)CC[C@@H]1[C@]32OO4 (some centres undefined)
13

Could you tell me which selectivity ratio is on file for C[C@@H]1CC[C@H]2C(C)(COC(=O)CCc3ccccc3)O[C@@H]3O[C@@]4(C)CC[C@@H]1[C@]32OO4 (some centres undefined) ?
4

// returns reported selectivity ratio for input C[C@@H]1CC[C@H]2C(C)(COC(=O)c3ccco3)O[C@@H]3O[C@@]4(C)CC[C@@H]1[C@]32OO4 (some centres undefined)
1

GET /values?readout=selectivity ratio&item= COc1ccc2nc3cc(Cl)ccc3c(N3CCN(CCO[C@H]4O[C@@H]5O[C@@]6(C)CC[C@H]7[C@H](C)CC[C@@H]([C@H]4C)[C@@]57OO6)CC3)c2c1
3

// returns reported selectivity ratio for input C[C@@H]1CC[C@H]2C(C)(COC(=O)[C@H]3CCCN3C(=O)C(F)(F)F)O[C@@H]3O[C@@]4(C)CC[C@@H]1[C@]32OO4 (some centres undefined)
11

Endpoint output: selectivity ratio of Cc1csc(C(=O)OCC2(C)O[C@@H]3O[C@@]4(C)CC[C@H]5[C@H](C)CC[C@@H]2[C@@]35OO4)c1 (some centres undefined) . Value?
18

Tell me the measured selectivity ratio of CNCCCNc1c2ccc(Cl)cc2nc2ccc(OC)cc12 , please.
0.1

# lookup: selectivity ratio of C[C@@H]1CC[C@H]2C(C)(COC(=O)c3cc4ccccc4o3)O[C@@H]3O[C@@]4(C)CC[C@@H]1[C@]32OO4 (some centres undefined)
7
